Reported IC50 is given for each of the following molecules.
- SYSTEM_TESTED: Ionotropic glutamate receptor NMDA 1/2D (Rattus norvegicus, UniProt P35439+Q62645)
- PROTOCOL: Negative allosteric modulation of rat GluN1a/GluN2D receptor expressed in Xenopus laevis oocytes assessed as suppression of 100 uM glutamate and 30 uM glycine induced-current by voltage clamp recording method
Numeric only. Scale: µM

Some solved entries appear below for comparison.
> print(dat)
                                   molecule  measurement.unit  measured
1  CCOC(=O)c1c(NC(=O)CC2SC(=N)NC2=O)sc2c1CCCC2 (racemic)                µM       0.6
2  CCOC(=O)c1c(NC(=O)CC2SC(=N)NC2=O)sc2c1CCC(CC)C2 (racemic)                µM       1.5
3  CCc1c(C)sc(NC(=O)CC2SC(=N)NC2=O)c1C(=O)OC (racemic)                µM       9.1
4  N#Cc1c(NC(=O)CC2SC(=N)NC2=O)sc2c1CCCC2 (racemic)                µM       4.3

API: the following record is the query input.
Data point: CCOC(=O)c1cc(C)sc1NC(=O)CC1SC(=N)NC1=O (racemic) ; IC50 = 12.3

----------
Items are presented alongside their recorded pIC50.
- SYSTEM_TESTED: Glutamate NMDA receptor; Grin1/Grin2a (Rattus norvegicus, UniProt P35439+Q00959)
- Sequence (Q00959 whole entry, other chains not shown): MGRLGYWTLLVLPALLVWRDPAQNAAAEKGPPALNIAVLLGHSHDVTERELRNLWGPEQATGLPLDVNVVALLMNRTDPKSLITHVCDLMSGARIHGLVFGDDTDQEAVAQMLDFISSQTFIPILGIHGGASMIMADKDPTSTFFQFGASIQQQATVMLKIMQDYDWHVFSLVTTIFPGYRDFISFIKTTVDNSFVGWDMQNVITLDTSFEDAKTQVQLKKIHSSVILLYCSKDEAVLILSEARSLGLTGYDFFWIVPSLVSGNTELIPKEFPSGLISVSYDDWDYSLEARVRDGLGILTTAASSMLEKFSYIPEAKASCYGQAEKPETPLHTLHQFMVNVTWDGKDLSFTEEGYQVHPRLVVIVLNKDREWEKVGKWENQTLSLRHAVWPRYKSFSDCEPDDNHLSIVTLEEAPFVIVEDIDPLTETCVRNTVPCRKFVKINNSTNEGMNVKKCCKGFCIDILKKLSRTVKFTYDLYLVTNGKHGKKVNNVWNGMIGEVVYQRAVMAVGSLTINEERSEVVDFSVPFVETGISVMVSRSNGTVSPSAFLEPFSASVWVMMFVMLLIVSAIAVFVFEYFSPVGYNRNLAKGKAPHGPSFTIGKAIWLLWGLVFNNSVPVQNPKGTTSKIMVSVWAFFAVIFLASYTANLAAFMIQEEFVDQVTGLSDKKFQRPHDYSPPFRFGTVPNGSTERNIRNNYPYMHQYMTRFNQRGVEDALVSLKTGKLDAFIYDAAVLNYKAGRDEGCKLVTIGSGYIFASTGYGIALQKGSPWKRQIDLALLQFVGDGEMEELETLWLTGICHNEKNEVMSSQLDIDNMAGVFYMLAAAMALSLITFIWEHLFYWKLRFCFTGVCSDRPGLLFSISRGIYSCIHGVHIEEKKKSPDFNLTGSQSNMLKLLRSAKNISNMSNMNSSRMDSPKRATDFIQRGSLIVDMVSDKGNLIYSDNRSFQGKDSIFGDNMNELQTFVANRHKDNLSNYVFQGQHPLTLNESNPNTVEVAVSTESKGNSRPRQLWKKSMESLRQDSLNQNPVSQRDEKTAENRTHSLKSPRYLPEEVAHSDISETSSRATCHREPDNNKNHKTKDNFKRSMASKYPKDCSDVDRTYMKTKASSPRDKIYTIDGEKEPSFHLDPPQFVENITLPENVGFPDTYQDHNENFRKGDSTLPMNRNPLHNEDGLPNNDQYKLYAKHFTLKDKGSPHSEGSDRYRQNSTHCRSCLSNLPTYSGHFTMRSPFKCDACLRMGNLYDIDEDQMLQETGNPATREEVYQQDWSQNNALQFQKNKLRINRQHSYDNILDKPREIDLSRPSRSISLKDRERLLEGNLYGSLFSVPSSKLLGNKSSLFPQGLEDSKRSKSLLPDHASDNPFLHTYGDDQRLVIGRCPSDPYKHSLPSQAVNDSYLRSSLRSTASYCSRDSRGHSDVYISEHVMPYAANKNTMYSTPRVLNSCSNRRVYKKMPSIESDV
- PROTOCOL: Negative allosteric modulation of rat GluN1a/GluN2A receptor expressed in Xenopus laevis oocytes assessed as suppression of 100 uM glutamate and 30 uM glycine glycine induced-current by voltage clamp recording method
Answer as the number alone; pIC50 is minus log10 of concentration in mol/L.

> print(dat)
                                   molecule  measured
1  CCc1cc(C(=O)OC)c(NC(=O)CC2SC(N)=NC2=O)s1 (racemic)      5.32
2  CCOC(=O)c1c(NC(=O)CC2SC(=N)NC2=O)sc2c1CCCC2 (racemic)      5.64
3  CCOC(=O)c1cc(C)sc1NC(=O)CC1SC(=N)NC1=O (racemic)      4.37
4  CCOC(=O)c1c(NC(=O)CC2SC(=N)NC2=O)sc2c1CCC(F)(F)C2 (racemic)      5.28
5  CCOC(=O)c1cc(CC)sc1NC(=O)CC1SC(=N)NC1=O (racemic)      5.21

Moving on to another molecule below.
The value of pIC50 measured for the molecule COC(=O)c1c(NC(=O)CC2SC(=N)NC2=O)sc(C)c1C (racemic) turned out to be 4.65

----------
In this section, each of the compounds is paired with its reported solubility kinetic.
- PROTOCOL: Solubility of compound in TEVC electrophysiological solution at 3.25 to 100 uM by nephelometric method
- Format: physicochemical
A complete answer gives the number and then names the unit.

// solved cases for solubility kinetic follow
> print(dat)
                                   compound  measured
1  CCOC(=O)c1c(NC(=O)CC2SC(N)=NC2=O)sc2c1CCC(C)C2 (racemic)     43 µM
2  CCOC(=O)c1c(NC(=O)CC2SC(=N)NC2=O)sc2c1CCC(C)(C)C2 (racemic)     37 µM
3  CCOC(=O)c1c(NC(=O)CC2SC(=N)NC2=O)sc2c1CCCC2 (racemic)     54 µM
4  CCOC(=O)c1c(NC(=O)CC2SC(=N)NC2=O)sc2c1CCC(CC)C2 (racemic)     73 µM

Now for the compound whose solubility kinetic we want.
Entry N#Cc1c(NC(=O)CC2SC(=N)NC2=O)sc2c1CCCC2 (racemic) ; solubility kinetic = 36 µM

----------
Listed next: entries and their corresponding pIC50.
- SYSTEM_TESTED: Glutamate NMDA receptor; Grin1/Grin2b (Rattus norvegicus, UniProt P35439+Q00960)
- Sequence (Q00960 whole entry, other chains not shown): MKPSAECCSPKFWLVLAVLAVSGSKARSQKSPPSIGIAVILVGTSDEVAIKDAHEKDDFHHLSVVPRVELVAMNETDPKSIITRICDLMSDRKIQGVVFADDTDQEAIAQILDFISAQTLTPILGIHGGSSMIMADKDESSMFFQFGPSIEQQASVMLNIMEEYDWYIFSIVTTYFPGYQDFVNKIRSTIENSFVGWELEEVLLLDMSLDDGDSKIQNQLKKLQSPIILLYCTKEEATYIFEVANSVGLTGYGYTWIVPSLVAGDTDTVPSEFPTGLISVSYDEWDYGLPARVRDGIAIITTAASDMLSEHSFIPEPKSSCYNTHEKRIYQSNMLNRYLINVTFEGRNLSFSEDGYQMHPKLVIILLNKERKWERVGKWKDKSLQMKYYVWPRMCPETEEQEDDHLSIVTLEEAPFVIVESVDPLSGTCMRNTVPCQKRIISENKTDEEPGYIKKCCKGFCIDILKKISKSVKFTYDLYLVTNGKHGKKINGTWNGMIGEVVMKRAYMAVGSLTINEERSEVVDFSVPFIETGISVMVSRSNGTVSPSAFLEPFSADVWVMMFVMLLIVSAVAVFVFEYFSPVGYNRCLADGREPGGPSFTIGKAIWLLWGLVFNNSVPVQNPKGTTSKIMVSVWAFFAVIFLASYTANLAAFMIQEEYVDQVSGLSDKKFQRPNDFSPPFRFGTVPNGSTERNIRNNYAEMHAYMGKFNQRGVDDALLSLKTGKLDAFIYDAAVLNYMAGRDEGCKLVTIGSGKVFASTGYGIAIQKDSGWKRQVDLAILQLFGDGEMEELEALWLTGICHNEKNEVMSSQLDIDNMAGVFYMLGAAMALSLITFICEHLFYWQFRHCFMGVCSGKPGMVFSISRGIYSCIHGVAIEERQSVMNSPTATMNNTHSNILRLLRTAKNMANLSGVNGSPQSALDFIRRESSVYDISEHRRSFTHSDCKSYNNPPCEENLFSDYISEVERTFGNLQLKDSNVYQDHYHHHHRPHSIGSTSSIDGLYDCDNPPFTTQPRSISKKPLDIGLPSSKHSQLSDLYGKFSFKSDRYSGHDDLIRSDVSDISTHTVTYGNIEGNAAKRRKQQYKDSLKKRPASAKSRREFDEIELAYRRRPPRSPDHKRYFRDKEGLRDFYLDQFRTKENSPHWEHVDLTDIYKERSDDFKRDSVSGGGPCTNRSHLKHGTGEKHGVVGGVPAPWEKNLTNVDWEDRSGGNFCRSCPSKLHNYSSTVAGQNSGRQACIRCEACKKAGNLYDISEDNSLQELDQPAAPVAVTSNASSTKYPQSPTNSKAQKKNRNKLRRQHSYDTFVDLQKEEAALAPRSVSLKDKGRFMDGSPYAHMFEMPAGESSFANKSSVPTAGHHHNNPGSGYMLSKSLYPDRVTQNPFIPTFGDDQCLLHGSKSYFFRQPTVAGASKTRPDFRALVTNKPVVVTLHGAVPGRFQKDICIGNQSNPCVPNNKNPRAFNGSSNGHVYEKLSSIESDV
- PROTOCOL: Negative allosteric modulation of rat GluN1a/GluN2B receptor expressed in Xenopus laevis oocytes assessed as suppression of 100 uM glutamate and 30 uM glycine induced-current by voltage clamp recording method
Notebook: values listed as pIC50 are -log10 of the concentration (mol/L).

Consider the reported pIC50 for these molecules:
> print(dat)
                                   molecule                             system.tested  measure.name  measured
1  CCc1cc(C(=O)OC)c(NC(=O)CC2SC(N)=NC2=O)s1 (racemic)  Glutamate NMDA receptor; Grin1/Grin2b (Rattus norvegicus, UniProt P35439+Q00960)         pIC50      5.03
2  CCOC(=O)c1c(NC(=O)CC2SC(=N)NC2=O)sc2c1CCC(F)(F)C2 (racemic)  Glutamate NMDA receptor; Grin1/Grin2b (Rattus norvegicus, UniProt P35439+Q00960)         pIC50      5.10
3  CCOC(=O)c1cc(C)sc1NC(=O)CC1SC(=N)NC1=O (racemic)  Glutamate NMDA receptor; Grin1/Grin2b (Rattus norvegicus, UniProt P35439+Q00960)         pIC50      4.35
4  CCOC(=O)c1c(NC(=O)CC2SC(=N)NC2=O)sc2c1CCOC2 (racemic)  Glutamate NMDA receptor; Grin1/Grin2b (Rattus norvegicus, UniProt P35439+Q00960)         pIC50      5.25

Now consider the entry below.
Record CCOC(=O)c1c(NC(=O)CC2SC(=N)NC2=O)sc2c1CCCC2 (racemic) , field pIC50: 5.38

----------
- SYSTEM_TESTED: Glutamate NMDA receptor; Grin1/Grin2b (Rattus norvegicus, UniProt P35439+Q00960)
- PROTOCOL: Negative allosteric modulation of rat GluN1a/GluN2B receptor expressed in Xenopus laevis oocytes assessed as suppression of 100 uM glutamate and 30 uM glycine induced-current by voltage clamp recording method
MEASURE_NAME: log10 IC50 (log10 of the value in µM)
Recall that a logarithmic scale is used here: each number is log10 of IC50 in µM.

Illustrative cases are given below, each with its answer.
> print(dat)
                                   molecule  measured
1  CCOC(=O)c1c(NC(=O)CC2SC(N)=NC2=O)sc2c1CCC(C)C2 (racemic)      0.34
2  COC(=O)c1c(NC(=O)CC2SC(N)=NC2=O)sc2c1CCCC2 (racemic)      0.62
3  CCc1c(C)sc(NC(=O)CC2SC(=N)NC2=O)c1C(=O)OC (racemic)      1.64
4  COC(=O)c1c(NC(=O)CC2SC(=N)NC2=O)sc(C)c1C (racemic)      1.45
5  CCOC(=O)c1c(NC(=O)CC2SC(=N)NC2=O)sc2c1CCC(CC)C2 (racemic)      0.34

Looking up CCOC(=O)c1c(NC(=O)CC2SC(=N)NC2=O)sc2c1CCC(C)(C)C2 (racemic) , I found its log10 IC50 recorded as 0.96

Please fill in: log10 IC50 reported for CCOC(=O)c1c(NC(=O)CC2SC(=N)NC2=O)sc2c1CCSC2 (racemic) = 1.09

Per the records, this molecule ( CCOC(=O)c1cc(CC)sc1NC(=O)CC1SC(=N)NC1=O (racemic) ) has log10 IC50 equal to 0.99

For COC(=O)c1c(NC(=O)CC2SC(N)=NC2=O)sc2c1CCC(C)C2 (racemic) the molecule record lists log10 IC50 as -0.22

----------
- PROTOCOL: Solubility of compound in TEVC electrophysiological solution at 3.25 to 100 uM by nephelometric method
- Type: physicochemical
MEASURE_NAME: solubility kinetic (µM)
Record the value in µM, omitting the unit from your answer.

Some solved cases for reference:
> print(dat)
                                   molecule  measurement.unit  measured
1  COC(=O)c1c(NC(=O)CC2SC(N)=NC2=O)sc2c1CCCC2 (racemic)                µM        57
2  COC(=O)c1c(NC(=O)CC2SC(N)=NC2=O)sc2c1CCC(C)C2 (racemic)                µM        20

Okay, next one:
solubility kinetic recorded for this molecule, CCOC(=O)c1c(NC(=O)CC2SC(=N)NC2=O)sc2c1CCC(F)(F)C2 (racemic) , is 35

----------
This listing pairs compounds with measured inhibition.
- SYSTEM_TESTED: Ionotropic glutamate receptor NMDA 1/2D (Rattus norvegicus) (UniProt P35439+Q62645)
- PROTOCOL: Negative allosteric modulation of rat GluN1a/GluN2D receptor expressed in Xenopus laevis oocytes assessed as suppression of 100 uM glutamate and 30 uM glycine induced-current at saturating compound level by voltage clamp recording method
- Type: cell-based
Write the value in % as a bare number.

For orientation, consider the following solved cases.
> print(dat)
                                   compound                             system.tested  measured
1  COC(=O)c1ccsc1NC(=O)CC1SC(=N)NC1=O (racemic)  Ionotropic glutamate receptor NMDA 1/2D (Rattus norvegicus) (UniProt P35439+Q62645)        99
2  CCOC(=O)c1c(NC(=O)CC2SC(=N)NC2=O)sc2c1CCC(CC)C2 (racemic)  Ionotropic glutamate receptor NMDA 1/2D (Rattus norvegicus) (UniProt P35439+Q62645)        73
3  COC(=O)c1c(NC(=O)CC2SC(N)=NC2=O)sc2c1CCCC2 (racemic)  Ionotropic glutamate receptor NMDA 1/2D (Rattus norvegicus) (UniProt P35439+Q62645)        86
4  CCOC(=O)c1c(NC(=O)CC2SC(=N)NC2=O)sc2c1CCCC2 (racemic)  Ionotropic glutamate receptor NMDA 1/2D (Rattus norvegicus) (UniProt P35439+Q62645)        41

// field: inhibition; key: CCOC(=O)c1c(NC(=O)CC2SC(=N)NC2=O)sc2c1CCC(F)(F)C2 (racemic) ; value = 65

Notebook: CCc1c(C)sc(NC(=O)CC2SC(=N)NC2=O)c1C(=O)OC (racemic) , inhibition read as 82

For CCOC(=O)c1c(NC(=O)CC2SC(N)=NC2=O)sc2c1CCC(C)C2 (racemic) the compound record lists inhibition as 76

Record CCOC(=O)c1cc(C)sc1NC(=O)CC1SC(=N)NC1=O (racemic) . Reported inhibition: 99

Lab note: CCOC(=O)c1c(NC(=O)CC2SC(=N)NC2=O)sc2c1CCC(C)(C)C2 (racemic) gave inhibition of 90
